# experiment-summary: in vitro
# setup-conditions: human, hela cells, % viability
endpoint: viability at 28.5 h, 10 µM (%)
Hi! Could you send only the number? It should be in %, unit omitted.

Consider the following illustrative entries.
Cc1cc2nc(/C(C#N)=C/c3ccncc3)[nH]c2cc1C
87.7
O=C1NC(=O)C(CCCCN2CCC(Cc3ccccc3)CC2)N1 (stereo not drawn)
91.8

Next compound, viability at 28.5 h, 10 µM to be filled in.
Query: What value of measured viability at 28.5 h, 10 µM is listed for CCN1CCN(c2c(Cl)cccc2NC(=O)CSc2ccc(Cl)cc2)CC1 ?
Response: 90.7

###

The entries below come with measured viability at 28.5 h, 10 µM values attached.
# experiment-summary: in vitro
# setup-conditions: human, hela cells, % viability
Hi! Could you send only the number? It should be in %, unit omitted.

Cc1nc2c(C(=O)N3CCNC(=O)C3)cnn2c(C)c1Cc1ccccc1
90.3
CCNc1nc(-c2ccsc2)cn2ccnc12
87.9
FC(F)(F)c1cc(-c2ccccc2)nc2onc(OCCN3CCOCC3)c12
90.9

Query: What value of measured viability at 28.5 h, 10 µM is listed for Cc1cccc(-c2ocnc2C(=O)NC(C)c2ccccn2)c1 (stereo not shown) ?
Response: 87.4

###

# experiment-summary: in vitro
# setup-conditions: human, hela cells, % viability
endpoint: viability at 28.5 h, 10 µM (%)
Hi! Could you send only the number? It should be in %, unit omitted.

Consider the following illustrative entries.
Cc1cc(OC(C)C(=O)Nc2ccc(S(=O)(=O)Nc3onc(C)c3C)cc2)cc(C)c1Cl (centres unmarked)
98.7
CCN(CC)C(=O)CN1CCN(c2nccnc2Oc2ccc(F)cc2)CC1 [CBK083020T]
87.9
Cc1ccc(S(=O)(=O)N2CCOCC2)cc1C(=O)O
115
COc1nc2nonc2nc1OC
110
CCOc1ccc2c(c1)CN(CC(=O)Nc1cc(C)no1)CC2
92.9

Query: What value of measured viability at 28.5 h, 10 µM is listed for O=C(COc1ccc(S(=O)(=O)N2CCCCC2)cc1)NCc1ccncc1 ?
Response: 92.5

Query: What value of measured viability at 28.5 h, 10 µM is listed for O=C(O)c1ccccc1-c1ccccc1C(=O)Nc1ccc(O)cc1 ?
Response: 85.1

Query: What value of measured viability at 28.5 h, 10 µM is listed for O=C(NC(NC(=O)c1ccccc1F)c1ccc2c(c1)OCO2)c1ccccc1F ?
Response: 106

Query: What value of measured viability at 28.5 h, 10 µM is listed for O=c1[nH]c(=O)c2c3c(sc2[nH]1)CCCC3 ?
Response: 67.6

Query: What value of measured viability at 28.5 h, 10 µM is listed for O=C1c2ccccc2CN1c1ccc(OC(F)(F)F)cc1 ?
Response: 91.3

Query: What value of measured viability at 28.5 h, 10 µM is listed for Cc1ccc(COCSc2nc3ccccc3n2CC(O)CO)cc1C (centres unmarked) ?
Response: 85.1

###

# experiment-summary: in vitro
# setup-conditions: human, hela cells, % viability
endpoint: viability at 28.5 h, 10 µM

Query: What value of measured viability at 28.5 h, 10 µM is listed for COc1ccc(CCn2cncc2-c2cn(C)nc2C)cc1C [CBK281814] ?
Response: 102%

Query: What value of measured viability at 28.5 h, 10 µM is listed for Cc1cc(-c2nccnc2N2CCN(CCN(C)C)CC2)cc(C)c1O [CBK037184] ?
Response: 105%

Query: What value of measured viability at 28.5 h, 10 µM is listed for O[C@@H]1C[C@@H](c2nc(-c3ccc4c(c3)OCO4)no2)N(Cc2cc3ccccc3o2)C1 [CBK288868] ?
Response: 83.9%

Query: What value of measured viability at 28.5 h, 10 µM is listed for COc1ccccc1N1CCn2c1nc1c2c(=O)n(CCN2CCOCC2)c(=O)n1C [CBK269265] ?
Response: 93.4%

Query: What value of measured viability at 28.5 h, 10 µM is listed for CC1(C)[C@H](Cc2cc(CN3CCOCC3)on2)C[C@@H]1NC(=O)C1CC1 [CBK289246] ?
Response: 113%

Query: What value of measured viability at 28.5 h, 10 µM is listed for COc1ccc(CCN(C)Cc2ccncc2)cc1OC [CBK261861] ?
Response: 98.4%

Query: What value of measured viability at 28.5 h, 10 µM is listed for Cc1cc(N2CCCC2)ccc1NC(=O)CCn1c(-c2cccs2)n[nH]c1=S [CBK297883] ?
Response: 86.6%

Query: What value of measured viability at 28.5 h, 10 µM is listed for CCCc1[nH]nc(O)c1CCc1ccccc1F [CBK075080] ?
Response: 88.5%

Query: What value of measured viability at 28.5 h, 10 µM is listed for COc1ccc(S(=O)(=O)N(CC(=O)Nc2ccc3c(c2)OCCO3)c2ccc(F)cc2)cc1 [CBK268584] ?
Response: 114%

Query: What value of measured viability at 28.5 h, 10 µM is listed for CC1CCc2c(sc3ncnc(NCC(=O)N4CCCC4)c23)C1 (centres unmarked) [CBK306079] ?
Response: 103%

Query: What value of measured viability at 28.5 h, 10 µM is listed for COc1ccc(Oc2nccnc2N2CCN(CC3CCCCC3)CC2)cc1OC [CBK083064T] ?
Response: 98.6%

Query: What value of measured viability at 28.5 h, 10 µM is listed for N#Cc1ccccc1N1CCN(c2cncc(-c3ccc(CO)cc3)n2)CC1 [CBK037383] ?
Response: 86.9%

Query: What value of measured viability at 28.5 h, 10 µM is listed for Cc1cc(=O)n(C)c(=O)n1CCCN1CCCCC1 [CBK027584] ?
Response: 115%

Query: What value of measured viability at 28.5 h, 10 µM is listed for COc1ccccc1CCC(=O)Nc1cnc(-c2ccc(F)cc2)c(-c2ccco2)n1 [CBK037002] ?
Response: 95.1%

Query: What value of measured viability at 28.5 h, 10 µM is listed for COc1ccc(CCNC(=O)c2cc3c([nH]c2=O)CCC3)cc1C [CBK281627] ?
Response: 83.2%

From: paper PMC12040169
